assaySystem: Prolyl endopeptidase (Sus scrofa, UniProt P23687)
Sequence (P23687 whole entry): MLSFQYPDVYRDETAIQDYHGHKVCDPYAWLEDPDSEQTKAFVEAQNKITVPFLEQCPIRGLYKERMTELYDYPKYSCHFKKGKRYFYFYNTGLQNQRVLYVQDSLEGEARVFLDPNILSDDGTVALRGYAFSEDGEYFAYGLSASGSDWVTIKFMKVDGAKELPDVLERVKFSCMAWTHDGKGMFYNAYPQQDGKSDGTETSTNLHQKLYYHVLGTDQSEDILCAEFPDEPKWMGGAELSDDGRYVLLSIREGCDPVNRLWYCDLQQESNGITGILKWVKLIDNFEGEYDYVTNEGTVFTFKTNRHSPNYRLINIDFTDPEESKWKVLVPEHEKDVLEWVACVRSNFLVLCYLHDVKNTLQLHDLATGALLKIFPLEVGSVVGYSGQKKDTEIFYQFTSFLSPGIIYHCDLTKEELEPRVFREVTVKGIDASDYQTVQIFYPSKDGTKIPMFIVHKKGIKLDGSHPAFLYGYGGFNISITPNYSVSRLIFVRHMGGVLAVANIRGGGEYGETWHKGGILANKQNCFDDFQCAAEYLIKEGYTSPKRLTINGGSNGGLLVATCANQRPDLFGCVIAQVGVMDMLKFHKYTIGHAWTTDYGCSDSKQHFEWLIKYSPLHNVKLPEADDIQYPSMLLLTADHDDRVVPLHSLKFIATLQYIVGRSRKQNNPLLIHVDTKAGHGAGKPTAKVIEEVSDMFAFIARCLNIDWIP
testSummary: Inhibition of recombinant porcine PREP expressed in Escherichia coli using Suc-Gly-Pro-AMC as substrate preincubated for 30 mins followed by substrate addition and measured after 60 mins by multilabel counter analysis
pIC50: −log10 of the molar value.
pIC50 overview
valueType: pIC50

# compound, assayValue
data = [
    ("O=C(CCCc1ccccc1)N1CCC[C@H]1C(=O)N1CCC[C@H]1c1ccn[nH]1", 4.15),
    ("O=C(CCCc1ccccc1)N1CCC[C@H]1C(=O)N1CCC[C@H]1c1nnc[nH]1", 4.54),
    ("Cn1nnc([C@@H]2CCCN2C(=O)[C@@H]2CCCN2C(=O)CCCc2ccccc2)n1", 4.92),
    ("CN(CC(=O)N1CCC[C@H]1c1nnn[nH]1)C(=O)CCc1ccccc1", 4.21),
    ("C[C@H](NC(=O)CCCc1ccccc1)C(=O)N1CCC[C@H]1c1nnc[nH]1", 4.26),
]
